- Test system: Staphylococcus aureus
- test_method_notes: Antibacterial activity against Staphylococcus aureus ATCC 6538 treated for 24 hrs followed by sub-cultivated for 72 hrs by micro dilution method
- Assay type: functional
Binary call on MBC with cut-off 400 µM: strictly below means label 1, and equality or higher means label 0.

Q: Lab note: confirm whether the reported MBC for this compound is below 400 µM, equality not counting. compound: `CCCNc1nnc(Cc2cc(OC)c(OC)cc2S(=O)(=O)N(C)C)s1`
A: label 0

Q: Lab note: confirm whether the reported MBC for this compound is below 400 µM, equality not counting. compound: `CNc1nnc(Cc2cc(OC)c(OC)cc2S(=O)(=O)N(C)C)o1`
A: label 1

Q: Lab note: confirm whether the reported MBC for this compound is below 400 µM, equality not counting. compound: `COc1cc(Cc2nnc(NC(C)(C)C)o2)c(S(=O)(=O)N(C)C)cc1OC`
A: label 0

Q: Lab note: confirm whether the reported MBC for this compound is below 400 µM, equality not counting. compound: CC1(C)S[C@@H]2[C@H](NC(=O)[C@H](N)c3ccccc3)C(=O)N2[C@H]1C(=O)O [AMPICILLIN]
A: label 1

Q: Lab note: confirm whether the reported MBC for this compound is below 400 µM, equality not counting. compound: `COc1cc(Cc2n[nH]c(=S)n2C(C)C)c(S(=O)(=O)N(C)C)cc1OC`
A: label 1

Q: Lab note: confirm whether the reported MBC for this compound is below 400 µM, equality not counting. compound: CN[C@@H]1[C@H](O[C@H]2[C@H](O[C@H]3[C@H](O)[C@@H](O)[C@H](N=C(N)N)[C@@H](O)[C@@H]3N=C(N)N)O[C@@H](C)[C@]2(O)C=O)O[C@@H](CO)[C@H](O)[C@H]1O [STREPTOMYCIN]
A: label 1

Q: Lab note: confirm whether the reported MBC for this compound is below 400 µM, equality not counting. compound: `CCCn1c(Cc2cc(OC)c(OC)cc2S(=O)(=O)N(C)C)n[nH]c1=S`
A: label 0

---

- Test system: Pseudomonas aeruginosa
- test_method_notes: Antibacterial activity against Pseudomonas aeruginosa ATCC 27853 treated for 24 hrs followed by sub-cultivated for 72 hrs by micro dilution method
- Assay type: functional
readout_kind: MBC
Don't forget the unit after the value.

Q: Query: MBC; subject: `CCCCn1c(Cc2cc(OC)c(OC)cc2S(=O)(=O)N(C)C)n[nH]c1=O`
A: 380 µM

Q: Query: MBC; subject: `CCCNc1nnc(Cc2cc(OC)c(OC)cc2S(=O)(=O)N(C)C)o1`
A: 260 µM

Q: Query: MBC; subject: `CCn1c(Cc2cc(OC)c(OC)cc2S(=O)(=O)N(C)C)n[nH]c1=S`
A: 260 µM

Q: Query: MBC; subject: `COc1cc(Cc2n[nH]c(=S)n2C(C)(C)C)c(S(=O)(=O)N(C)C)cc1OC`
A: 420 µM

Q: Query: MBC; subject: `COc1cc(Cc2n[nH]c(=O)n2C(C)(C)C)c(S(=O)(=O)N(C)C)cc1OC`
A: 390 µM

Q: Query: MBC; subject: `CCCCNc1nnc(Cc2cc(OC)c(OC)cc2S(=O)(=O)N(C)C)o1`
A: 250 µM

Q: Query: MBC; subject: `COc1cc(Cc2nnc(NC(C)C)s2)c(S(=O)(=O)N(C)C)cc1OC`
A: 380 µM

Q: Query: MBC; subject: `CCCCn1c(Cc2cc(OC)c(OC)cc2S(=O)(=O)N(C)C)n[nH]c1=S`
A: 480 µM

Q: Query: MBC; subject: CC1(C)S[C@@H]2[C@H](NC(=O)[C@H](N)c3ccccc3)C(=O)N2[C@H]1C(=O)O [AMPICILLIN]
A: 1240 µM

Q: Query: MBC; subject: `CCNc1nnc(Cc2cc(OC)c(OC)cc2S(=O)(=O)N(C)C)o1`
A: 540 µM

Q: Query: MBC; subject: `CCNc1nnc(Cc2cc(OC)c(OC)cc2S(=O)(=O)N(C)C)s1`
A: 260 µM

Q: Query: MBC; subject: `CNc1nnc(Cc2cc(OC)c(OC)cc2S(=O)(=O)N(C)C)o1`
A: 560 µM

Q: Query: MBC; subject: `CCn1c(Cc2cc(OC)c(OC)cc2S(=O)(=O)N(C)C)n[nH]c1=O`
A: 540 µM

Q: Query: MBC; subject: `COc1cc(Cc2nnc(NC(C)(C)C)o2)c(S(=O)(=O)N(C)C)cc1OC`
A: 390 µM

Q: Query: MBC; subject: `CCCn1c(Cc2cc(OC)c(OC)cc2S(=O)(=O)N(C)C)n[nH]c1=S`
A: 500 µM

Q: Query: MBC; subject: `CCCn1c(Cc2cc(OC)c(OC)cc2S(=O)(=O)N(C)C)n[nH]c1=O`
A: 780 µM

Q: Query: MBC; subject: `CCCNc1nnc(Cc2cc(OC)c(OC)cc2S(=O)(=O)N(C)C)s1`
A: 500 µM

Q: Query: MBC; subject: `COc1cc(Cc2n[nH]c(=O)n2C(C)C)c(S(=O)(=O)N(C)C)cc1OC`
A: 390 µM

Q: Query: MBC; subject: `COc1cc(Cc2n[nH]c(=S)n2C)c(S(=O)(=O)N(C)C)cc1OC`
A: 540 µM

Q: Query: MBC; subject: `CCCCNc1nnc(Cc2cc(OC)c(OC)cc2S(=O)(=O)N(C)C)s1`
A: 480 µM

Q: Query: MBC; subject: `CNc1nnc(Cc2cc(OC)c(OC)cc2S(=O)(=O)N(C)C)s1`
A: 270 µM

Q: Query: MBC; subject: CN[C@@H]1[C@H](O[C@H]2[C@H](O[C@H]3[C@H](O)[C@@H](O)[C@H](N=C(N)N)[C@@H](O)[C@@H]3N=C(N)N)O[C@@H](C)[C@]2(O)C=O)O[C@@H](CO)[C@H](O)[C@H]1O [STREPTOMYCIN]
A: 340 µM

Q: Query: MBC; subject: `COc1cc(Cc2n[nH]c(=S)n2C(C)C)c(S(=O)(=O)N(C)C)cc1OC`
A: 630 µM

---

- Tested on: Aspergillus versicolor
- test_method_notes: Antifungal activity against Aspergillus versicolor ATCC 11730 after 72 hrs by serial dilution method
- Format: functional
- stated_conditions: ATCC 11730, 72 h
Please provide measured MIC for the entries that follow.
Answer format: numeric, µM implied, no suffix.

Q: Query: MIC; subject: `CCn1c(Cc2cc(OC)c(OC)cc2S(=O)(=O)N(C)C)n[nH]c1=O`
A: 140

Q: Query: MIC; subject: `COc1cc(Cc2nnc(NC(C)C)s2)c(S(=O)(=O)N(C)C)cc1OC`
A: 250

Q: Query: MIC; subject: `CCCCNc1nnc(Cc2cc(OC)c(OC)cc2S(=O)(=O)N(C)C)o1`
A: 250

Q: Query: MIC; subject: `CCCCNc1nnc(Cc2cc(OC)c(OC)cc2S(=O)(=O)N(C)C)s1`
A: 120

Q: Query: MIC; subject: `CCNc1nnc(Cc2cc(OC)c(OC)cc2S(=O)(=O)N(C)C)o1`
A: 140

Q: Query: MIC; subject: `COc1cc(Cc2nnc(NC(C)(C)C)o2)c(S(=O)(=O)N(C)C)cc1OC`
A: 130

Q: Query: MIC; subject: `CCNc1nnc(Cc2cc(OC)c(OC)cc2S(=O)(=O)N(C)C)s1`
A: 260

Q: Query: MIC; subject: `COc1cc(Cc2n[nH]c(=S)n2C)c(S(=O)(=O)N(C)C)cc1OC`
A: 140

Q: Query: MIC; subject: `COc1cc(Cc2n[nH]c(=O)n2C(C)C)c(S(=O)(=O)N(C)C)cc1OC`
A: 130

Q: Query: MIC; subject: `COc1cc(Cc2n[nH]c(=S)n2C(C)C)c(S(=O)(=O)N(C)C)cc1OC`
A: 130

Q: Query: MIC; subject: `CCCn1c(Cc2cc(OC)c(OC)cc2S(=O)(=O)N(C)C)n[nH]c1=S`
A: 250

Q: Query: MIC; subject: `CCn1c(Cc2cc(OC)c(OC)cc2S(=O)(=O)N(C)C)n[nH]c1=S`
A: 130

Q: Query: MIC; subject: `CCCNc1nnc(Cc2cc(OC)c(OC)cc2S(=O)(=O)N(C)C)o1`
A: 260

Q: Query: MIC; subject: `CCCNc1nnc(Cc2cc(OC)c(OC)cc2S(=O)(=O)N(C)C)s1`
A: 250

Q: Query: MIC; subject: `COc1cc(Cc2n[nH]c(=S)n2C(C)(C)C)c(S(=O)(=O)N(C)C)cc1OC`
A: 240

Q: Query: MIC; subject: `CNc1nnc(Cc2cc(OC)c(OC)cc2S(=O)(=O)N(C)C)s1`
A: 270

Q: Query: MIC; subject: `CCCCn1c(Cc2cc(OC)c(OC)cc2S(=O)(=O)N(C)C)n[nH]c1=O`
A: 130

Q: Query: MIC; subject: `COc1cc(Cc2n[nH]c(=O)n2C(C)(C)C)c(S(=O)(=O)N(C)C)cc1OC`
A: 250

Q: Query: MIC; subject: CC(=O)N1CCN(c2ccc(OCC3COC(Cn4ccnc4)(c4ccc(Cl)cc4Cl)O3)cc2)CC1 (stereo not drawn) [KETOCONAZOLE]
A: 380

Q: Query: MIC; subject: `CCCn1c(Cc2cc(OC)c(OC)cc2S(=O)(=O)N(C)C)n[nH]c1=O`
A: 130

Q: Query: MIC; subject: c1ccc(-c2ccc(C(c3ccccc3)n3ccnc3)cc2)cc1 (stereo not drawn) [BIFONAZOLE]
A: 320

Q: Query: MIC; subject: `CNc1nnc(Cc2cc(OC)c(OC)cc2S(=O)(=O)N(C)C)o1`
A: 140

Q: Query: MIC; subject: `CCCCn1c(Cc2cc(OC)c(OC)cc2S(=O)(=O)N(C)C)n[nH]c1=S`
A: 240
